These entries and their values trace back to patent US9340600B2.

molecular target: GLP-1 receptor (Homo sapiens, UniProt P43220); construct: expressed in transfected cells; host or cells: HEK293; assay: cAMP induction, firefly luciferase-based reporter assay in HEK293 cells co-transfected with GLP-1 receptor; assay type: cell-based; conditions: EC50 at GLP-1 Receptor, Table 1
Sequence (P43220 24-463): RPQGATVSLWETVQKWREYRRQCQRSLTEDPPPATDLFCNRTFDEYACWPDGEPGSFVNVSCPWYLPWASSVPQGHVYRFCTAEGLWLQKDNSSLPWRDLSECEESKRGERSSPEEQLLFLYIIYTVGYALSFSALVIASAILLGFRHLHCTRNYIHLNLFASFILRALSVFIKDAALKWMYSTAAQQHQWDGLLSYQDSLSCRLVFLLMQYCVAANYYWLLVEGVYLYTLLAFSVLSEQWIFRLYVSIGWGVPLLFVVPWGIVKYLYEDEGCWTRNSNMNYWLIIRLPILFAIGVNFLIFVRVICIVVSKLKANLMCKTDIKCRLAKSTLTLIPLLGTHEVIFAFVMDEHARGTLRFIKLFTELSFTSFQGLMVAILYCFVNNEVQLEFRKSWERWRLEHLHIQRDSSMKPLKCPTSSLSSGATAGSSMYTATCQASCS
*1 amine or outer side, *2 acyl side, *3 side chain or, on linkers, in order; H or OH if unused. Where no end group is shown, it is not given here. Side-chain parts run from the residue outwards. [ ]: non-standard residue; d: D form. The star is where a group is joined. γGlu = O=C(O)[C@H](CCC(=O)[*:2])N[*:1]; Palmitoyl = CCCCCCCCCCCCCCCC(=O)*; Aib = CC(C)(N)C(=O)O
property: EC50 (pM)

# substance, system, unit abbrev, measured number
rows = [
    ("H-H[Aib]QGTFTSDYSKYLEERAAQDFVQWLLDGGPSSGAPPPSK([γGlu-γGlu-Palmitoyl])G-NH2 [compound 15]", "GLP-1 receptor (Homo sapiens, UniProt P43220)", "pM", 3),
    ("H-H[Aib]QGTFTSEYSKYLDERAAQDFVQWLLDGGPSSGAPPPSK([γGlu-γGlu-Palmitoyl])G-NH2 [compound 16]", "GLP-1 receptor (Homo sapiens, UniProt P43220)", "pM", 2),
    ("H[Aib]QGTFTSDYAKYLDERAAQDFVQWLLDGGPSSGAPPPSK([γGlu-γGlu-Palmitoyl])G-NH2 [compound 17]", "GLP-1 receptor (Homo sapiens, UniProt P43220)", "pM", 8),
]

* * *

target: glucagon receptor (Homo sapiens); construct: expressed in transfected cells; host or cells: HEK293; assay: cAMP induction, firefly luciferase-based reporter assay in HEK293 cells co-transfected with glucagon receptor; type: cell-based; conditions: EC50 at Glucagon Receptor, Table 1
Sequence (P47871 26-477): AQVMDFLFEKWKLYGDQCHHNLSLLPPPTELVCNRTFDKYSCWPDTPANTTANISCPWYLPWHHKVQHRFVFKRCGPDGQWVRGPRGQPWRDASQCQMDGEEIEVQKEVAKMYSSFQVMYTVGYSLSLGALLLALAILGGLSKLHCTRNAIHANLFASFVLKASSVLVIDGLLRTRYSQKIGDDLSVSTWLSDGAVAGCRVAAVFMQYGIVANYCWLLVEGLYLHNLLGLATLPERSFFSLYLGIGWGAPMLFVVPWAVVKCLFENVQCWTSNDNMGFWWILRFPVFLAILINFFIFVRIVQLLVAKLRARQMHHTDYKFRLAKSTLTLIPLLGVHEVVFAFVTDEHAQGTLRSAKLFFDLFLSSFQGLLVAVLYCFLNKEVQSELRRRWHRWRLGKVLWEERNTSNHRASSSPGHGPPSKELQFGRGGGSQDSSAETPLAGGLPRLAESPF
*1 amine or outer side, *2 acyl side, *3 side chain or, on linkers, in order; H or OH if unused. Side-chain parts run from the residue outwards. [ ]: non-standard residue; d: D form. The star is where a group is joined. γGlu = O=C(O)[C@H](CCC(=O)[*:2])N[*:1]; Palmitoyl = CCCCCCCCCCCCCCCC(=O)*; Aib = CC(C)(N)C(=O)O

# substance, unit abbrev, EC50
records = [
    ("H-H[Aib]QGTFTSDYSKYLEERAAQDFVQWLLDGGPSSGAPPPSK([γGlu-γGlu-Palmitoyl])G-NH2 [compound 15]", "pM", 5),
]

* * *

molecular target: GIP receptor (Homo sapiens); construct: expressed in transfected cells; host or cells: HEK293; test: cAMP induction, firefly luciferase-based reporter assay in HEK293 cells co-transfected with GIP receptor; type: cell-based; settings: EC50 at GIP Receptor, Table 1
Sequence (P48546 22-466): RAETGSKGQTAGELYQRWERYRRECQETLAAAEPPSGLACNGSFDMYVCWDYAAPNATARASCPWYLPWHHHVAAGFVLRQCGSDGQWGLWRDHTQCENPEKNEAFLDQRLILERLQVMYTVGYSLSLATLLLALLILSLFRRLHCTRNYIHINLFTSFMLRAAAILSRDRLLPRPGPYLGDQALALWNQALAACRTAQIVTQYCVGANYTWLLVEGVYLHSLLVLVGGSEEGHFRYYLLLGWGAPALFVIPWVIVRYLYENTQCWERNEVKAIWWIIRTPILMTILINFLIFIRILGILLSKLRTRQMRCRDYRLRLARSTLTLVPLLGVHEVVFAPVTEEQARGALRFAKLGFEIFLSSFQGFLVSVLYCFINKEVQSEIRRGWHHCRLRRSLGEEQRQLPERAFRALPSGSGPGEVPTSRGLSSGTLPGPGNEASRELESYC
*1 amine or outer side, *2 acyl side, *3 side chain or, on linkers, in order; H or OH if unused. Where no end group is shown, it is not given here. Side-chain parts run from the residue outwards. [ ]: non-standard residue; d: D form. The star is where a group is joined. γGlu = O=C(O)[C@H](CCC(=O)[*:2])N[*:1]; Palmitoyl = CCCCCCCCCCCCCCCC(=O)*; Aib = CC(C)(N)C(=O)O
property: EC50 (nM)

# substance, system, measured number
measured = [
    ("H[Aib]QGTFTSDYAKYLDERAAQDFVQWLLDGGPSSGAPPPSK([γGlu-γGlu-Palmitoyl])G-NH2 [compound 17]", "GIP receptor (Homo sapiens)", 0.02),
]
